experiment: Aqueous solubility screen in PBS; type: physicochemical; conditions: PBS with 1% DMSO

| cpd_smiles | solubility at 1 h (µg/mL) |
| --- | --- |
| Cc1cc(SCc2cc(=O)[nH][nH]2)c(Cl)cc1Cl | 16.4 |

====

test: Microsomal stability; format: in vitro ADME; conditions: mouse, liver microsomes, pH 7.4, CL’int No NADPH, without NADPH

| compound | unit_of_measurement | CLint scaled at 5 μM |
| --- | --- | --- |
| Cc1cc(SCc2cc(=O)[nH][nH]2)c(Cl)cc1Cl [compound 1] | mL/min/kg | 61.2 |

====

test: Microsomal stability; type: in vitro ADME; conditions: human, liver microsomes, pH 7.4, CL’int, 37 °C, with NADPH
measured_quantity: CLint scaled at 5 μM (mL/min/kg)

| cpd_smiles | unit_of_measurement | recorded_value |
| --- | --- | --- |
| Cc1cc(SCc2cc(=O)[nH][nH]2)c(Cl)cc1Cl | mL/min/kg | 58.5 |

====

test: Microsomal stability; assay type: in vitro ADME; conditions: mouse, liver microsomes, pH 7.4, CL’int, 5 μM, 37 °C, with NADPH

| cpd_smiles | unit_of_measurement | CLint scaled at 5 μM |
| --- | --- | --- |
| Cc1cc(SCc2cc(=O)[nH][nH]2)c(Cl)cc1Cl | mL/min/kg | 292 |

Data provenance is paper PMC3014451.
